Known mean nematode size ln(EXT) (ln) of a selection of molecules
- Tested on: Caenorhabditis elegans N2
- protocol_notes: mean nematode size ln(EXT) after 48 h, plate-adjusted (DMSO control set to 6) (ln(EXT), control-adjusted); higher = larger nematodes / less growth inhibition
- test_settings: 100 µM; exposure time 48 h
The answer should be written as a number, with no unit following it.

[
  {
    "molecule": "CCOCCO",
    "experimental_readout": "mean nematode size ln(EXT) (ln)",
    "reading": 5.89
  },
  {
    "molecule": "CC(C)(C)c1cc(C(C)(C)C)c(O)c(C(C)(C)C)c1",
    "experimental_readout": "mean nematode size ln(EXT) (ln)",
    "reading": 5.4
  },
  {
    "molecule": "CCc1cccc(C)c1N(C(=O)CCl)C(C)COC (stereo unspecified)",
    "experimental_readout": "mean nematode size ln(EXT) (ln)",
    "reading": 5.63
  },
  {
    "molecule": "CC(=O)Nc1ccc(O)cc1",
    "experimental_readout": "mean nematode size ln(EXT) (ln)",
    "reading": 6.04
  },
  {
    "molecule": "CCCCCCCC/C=C\\CCCCCCCC(=O)OC[C@@H](O)[C@H]1OC[C@H](O)[C@H]1O [Sorbitan, mono-(9Z)-9-octadecenoate]",
    "experimental_readout": "mean nematode size ln(EXT) (ln)",
    "reading": 5.83
  }
]

The recorded mean nematode size ln(EXT) (ln) for entry Oc1cc(Cl)c(Cl)cc1Cl equals 3.41

The recorded mean nematode size ln(EXT) (ln) for entry CC(Oc1cccc(Cl)c1)C(=O)O (stereo unspecified) equals 5.99

The recorded mean nematode size ln(EXT) (ln) for entry CNC(=O)N(C)c1nnc(C(C)(C)C)s1 equals 5.92

The recorded mean nematode size ln(EXT) (ln) for entry Cc1cc(C)c(O)c(C)c1 equals 5.86

The recorded mean nematode size ln(EXT) (ln) for entry C1N2CN3CN1CN(C2)C3 equals 5.41

The recorded mean nematode size ln(EXT) (ln) for entry Nc1cc(Cl)cc(C(=O)O)c1Cl equals 5.58

The recorded mean nematode size ln(EXT) (ln) for entry O=C(Oc1ccc(Br)cc1)N1CCN2CCC1CC2 [4-bromophenyl 1,4-diazabicyclo[3.2.2]nonane-4-carboxylate] equals 5.6

The recorded mean nematode size ln(EXT) (ln) for entry CC(=O)c1ccccc1 equals 6.11

The recorded mean nematode size ln(EXT) (ln) for entry CCCCCCCCCCCCCCCC equals 5.83

The recorded mean nematode size ln(EXT) (ln) for entry C#C[C@]1(O)CC[C@H]2[C@@H]3CCc4cc(O)ccc4[C@H]3CC[C@@]21C equals 5.86

The recorded mean nematode size ln(EXT) (ln) for entry Cc1ccc(C(C)C)c(O)c1 equals 5.51

The recorded mean nematode size ln(EXT) (ln) for entry COP(=O)(OC)OC(Br)C(Cl)(Cl)Br (stereo unspecified) equals 4.66

The recorded mean nematode size ln(EXT) (ln) for entry Nc1ccc(Cc2ccc(N)cc2)cc1 equals 5.92

The recorded mean nematode size ln(EXT) (ln) for entry O=c1n(Cl)c(=O)n(Cl)c(=O)n1Cl equals 5.69

The recorded mean nematode size ln(EXT) (ln) for entry Cc1c(C(=O)O)c(O)cc2c1C(=O)c1c(O)c([C@@H]3O[C@H](CO)[C@@H](O)[C@H](O)[C@H]3O)c(O)c(O)c1C2=O equals 5.46

The recorded mean nematode size ln(EXT) (ln) for entry CC[C@H](C)C1O[C@]2(C=C[C@@H]1C)C[C@@H]1C[C@@H](C/C=C(\C)[C@@H](O[C@H]3C[C@H](OC)[C@@H](O[C@H]4C[C@H](OC)[C@H](NC)[C@H](C)O4)[C@H](C)O3)[C@@H](C)/C=C/C=C3\CO[C@@H]4[C@H](O)C(C)=C[C@@H](C(=O)O1)[C@]34O)O2 (stereo partly specified) [Emamectin benzoate] equals 3.54

---

- Tested on: Caenorhabditis elegans N2
- protocol_notes: lowest effective concentration for larval growth inhibition (size below effect threshold); higher = less potent
- test_settings: exposure time 48 h
Known lowest effective concentration of a selection of molecules
Kindly provide the numeric value in µM only, without the unit symbol.

Guide cases for lowest effective concentration, answers given:
[
  {
    "molecule": "COc1cccc(C(=O)NN(C(=O)c2cc(C)cc(C)c2)C(C)(C)C)c1C [Methoxyfenozide]",
    "lowest effective concentration, µM": 200
  },
  {
    "molecule": "O=NN(c1ccccc1)c1ccccc1",
    "lowest effective concentration, µM": 200
  }
]

The recorded lowest effective concentration for entry COP(=S)(OC)SCN1C(=O)c2ccccc2C1=O equals 10

The recorded lowest effective concentration for entry CCCCN(CC)c1c([N+](=O)[O-])cc(C(F)(F)F)cc1[N+](=O)[O-] equals 50

The recorded lowest effective concentration for entry O=C1CN(/N=C/c2ccc([N+](=O)[O-])o2)C(=O)N1 equals 200

The recorded lowest effective concentration for entry CCOC(=O)COc1ccc2c(c1)CC(NCC(O)c1cccc(Cl)c1)CC2 (configuration not stated) equals 200

The recorded lowest effective concentration for entry CCCC1COC(Cn2cncn2)(c2ccc(Cl)cc2Cl)O1 (configuration not stated) equals 200

---

- Test system: Caenorhabditis elegans N2
- protocol_notes: mean nematode size ln(EXT) after 48 h, plate-adjusted (DMSO control set to 6) (ln(EXT), control-adjusted); higher = larger nematodes / less growth inhibition
- test_settings: 0.5 µM; exposure time 48 h
Known mean nematode size ln(EXT) (ln) of a selection of compounds

Guide cases for mean nematode size ln(EXT) (ln), answers given:
[
  {
    "compound": "CCC(C)=NO",
    "test_target": "Caenorhabditis elegans N2",
    "mean nematode size ln(EXT) (ln)": 5.68
  },
  {
    "compound": "CCCCN(CCCC)CCCC",
    "test_target": "Caenorhabditis elegans N2",
    "mean nematode size ln(EXT) (ln)": 5.91
  },
  {
    "compound": "CC[C@H](C)C1O[C@]2(C=C[C@@H]1C)C[C@@H]1C[C@@H](C/C=C(\\C)[C@@H](O[C@H]3C[C@H](OC)[C@@H](O[C@H]4C[C@H](OC)[C@H](NC)[C@H](C)O4)[C@H](C)O3)[C@@H](C)/C=C/C=C3\\CO[C@@H]4[C@H](O)C(C)=C[C@@H](C(=O)O1)[C@]34O)O2 (stereo partly specified) [Emamectin benzoate]",
    "test_target": "Caenorhabditis elegans N2",
    "mean nematode size ln(EXT) (ln)": 3.52
  },
  {
    "compound": "ClC1=C(Cl)[C@]2(Cl)[C@@H]3[C@@H](Cl)[C@H]4O[C@H]4[C@@H]3[C@@]1(Cl)C2(Cl)Cl (single isomer, unassigned; isomer b) [Heptachlor epoxide, isomer B]",
    "test_target": "Caenorhabditis elegans N2",
    "mean nematode size ln(EXT) (ln)": 5.72
  },
  {
    "compound": "CN1CCN(c2ccccc2/C=C2\\SCCN(c3ccc(Cl)c(Cl)c3)C2=O)CC1",
    "test_target": "Caenorhabditis elegans N2",
    "mean nematode size ln(EXT) (ln)": 5.89
  }
]

Measured mean nematode size ln(EXT) (ln) for this entry CC1(C)C(C=C(Cl)Cl)C1C(=O)OC(C#N)c1ccc(F)c(Oc2ccccc2)c1 (stereo unspecified) on Caenorhabditis elegans N2: 6.09

Measured mean nematode size ln(EXT) (ln) for this entry Clc1cc(Cl)c(Cl)cc1Cl on Caenorhabditis elegans N2: 5.97

Measured mean nematode size ln(EXT) (ln) for this entry CCCOC(=O)c1ccc(C(=O)OCCC)nc1 on Caenorhabditis elegans N2: 5.88

Measured mean nematode size ln(EXT) (ln) for this entry CC(C1CC1)C(O)(Cn1cncn1)c1ccc(Cl)cc1 (stereo unspecified) on Caenorhabditis elegans N2: 5.92

Measured mean nematode size ln(EXT) (ln) for this entry O=C1NC(=O)C(c2ccccc2)(c2ccccc2)N1 on Caenorhabditis elegans N2: 5.94

Measured mean nematode size ln(EXT) (ln) for this entry c1cc2c3c(cccc3c1)CC2 on Caenorhabditis elegans N2: 6.14

Measured mean nematode size ln(EXT) (ln) for this entry CC(=O)S[C@H](C(=O)N[C@H]1Cc2ccccc2[C@H]2CCC[C@@H](C(=O)O)N2C1=O)C(C)C on Caenorhabditis elegans N2: 5.89

---

- Test system: Caenorhabditis elegans N2
- protocol_notes: mean nematode size ln(EXT) after 48 h, plate-adjusted (DMSO control set to 6) (ln(EXT), control-adjusted); higher = larger nematodes / less growth inhibition
- test_settings: 200 µM; exposure time 48 h
experimental_readout: mean nematode size ln(EXT) (ln)

Guide cases for mean nematode size ln(EXT) (ln), answers given:
[
  {
    "compound": "CCCCCCCCCCCCCCCCO",
    "mean nematode size ln(EXT) (ln)": 5.64
  },
  {
    "compound": "CC(C)(C)CC(C)(C)c1ccc(O)c(-n2nc3ccccc3n2)c1",
    "mean nematode size ln(EXT) (ln)": 5.44
  },
  {
    "compound": "CCCCC(CC)COC(=O)c1ccccc1C(=O)OCC(CC)CCCC (stereo not given) [Diethylhexyl phthalate]",
    "mean nematode size ln(EXT) (ln)": 5.76
  },
  {
    "compound": "O=C(N[C@H]1CN2CCC1CC2)c1cc2ccoc2cn1",
    "mean nematode size ln(EXT) (ln)": 5.65
  }
]

Now look at this entry.
Measured mean nematode size ln(EXT) (ln) for this entry CC(C)CC(C)O (stereo not given) on Caenorhabditis elegans N2: 5.79

Origin of values: the supplement of paper PMC4858399
